ZFP8196 linker 1c (artificial): reported binding signal (normalized ELISA) for various sequences.
PROPERTY_MEASURED: binding signal (normalized ELISA)

# SEQUENCE_CHAIN, READING
rows = [
    ("TTAGATAAACTGACAAAAGGCTATC (double strand) [8196 target gap A]", 0.2),
    ("TTAGATAAACTGACCAAAAGGCTATC (double strand) [8196 target gap AC]", 0),
    ("TTAGATAAACTGGCAAAAGGCTATC (double strand) [8196 target gap G]", 0.57),
    ("TTAGATAAACTGCCAAAAGGCTATC (double strand) [8196 target gap C]", 0.09),
    ("TTAGATAAACTGTGCAAAAGGCTATC (double strand) [8196 target gap TG]", 0),
]

----------
# System: ZFP8196 linker TSSPRSNAKP (artificial)

# SEQUENCE_CHAIN, TESTED_TARGET, binding signal (normalized ELISA)
measured = [
    ("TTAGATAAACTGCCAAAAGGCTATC (double strand) [8196 target gap C]", "ZFP8196 linker TSSPRSNAKP (artificial)", 0.02),
    ("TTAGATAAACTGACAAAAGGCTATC (double strand) [8196 target gap A]", "ZFP8196 linker TSSPRSNAKP (artificial)", 0.05),
    ("TTAGATAAACTGTCCAAAAGGCTATC (double strand) [8196 target gap TC]", "ZFP8196 linker TSSPRSNAKP (artificial)", 0.01),
    ("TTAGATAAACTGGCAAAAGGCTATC (double strand) [8196 target gap G]", "ZFP8196 linker TSSPRSNAKP (artificial)", 0.2),
    ("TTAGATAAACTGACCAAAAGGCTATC (double strand) [8196 target gap AC]", "ZFP8196 linker TSSPRSNAKP (artificial)", 0),
    ("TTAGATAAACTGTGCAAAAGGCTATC (double strand) [8196 target gap TG]", "ZFP8196 linker TSSPRSNAKP (artificial)", 0.01),
]

----------
Target or system ZFP7264 linker TGLPKPKP (artificial); recorded quantity binding signal (normalized ELISA).

# SEQUENCE_CHAIN, binding signal (normalized ELISA)
records = [
    ("TTAGTTAAAGCGTTGCTCCGAATATC (double strand) [7264 target gap TT]", 0.03),
    ("TTAGTTAAAGCGAGCTCCGAATATC (double strand) [7264 target gap A]", 0.19),
    ("TTAGTTAAAGCGCGCTCCGAATATC (double strand) [7264 target gap C]", 0.11),
    ("TTAGTTAAAGCGGGCTCCGAATATC (double strand) [7264 target gap G]", 0.38),
    ("TTAGTTAAAGCGCTGCTCCGAATATC (double strand) [7264 target gap CT]", 0.02),
    ("TTAGTTAAAGCGTAGCTCCGAATATC (double strand) [7264 target gap TA]", 0.02),
]

----------
# System: ZFP8196 linker TCPRPPTRKP (artificial)

# SEQUENCE_CHAIN, binding signal (normalized ELISA)
rows = [
    ("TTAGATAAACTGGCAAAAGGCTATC (double strand) [8196 target gap G]", 0.48),
    ("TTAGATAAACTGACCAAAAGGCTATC (double strand) [8196 target gap AC]", 0),
    ("TTAGATAAACTGTCCAAAAGGCTATC (double strand) [8196 target gap TC]", 0.01),
    ("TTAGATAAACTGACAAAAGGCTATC (double strand) [8196 target gap A]", 0.18),
    ("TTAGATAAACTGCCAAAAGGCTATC (double strand) [8196 target gap C]", 0.05),
    ("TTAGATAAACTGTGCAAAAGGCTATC (double strand) [8196 target gap TG]", 0.01),
]
